Measurement target: T1, MaturePDGF-β_NterminalPeptide
T1 construct: an N-terminal G was added and is left out of the numbering; also called PDGF-β peptide
T1 peptide: RhodamineB-GSLGSLTIAEPAMIAE
Test method notes: fluorescence anisotropy; 20 nM rhodamine PDGF-β N-terminal peptide, unlabeled RPtag large variant titrated; bar of Ka = 1/Kd, left axis
No end group written: not given here. *: point of attachment. RhodamineB = CCN(CC)c1ccc2c(-c3ccccc3C(=O)*)c3ccc(=[N+](CC)CC)cc-3oc2c1
Endpoint: binding result

>>> experimental_value("g130v (designed binder, also called RPtag(large) G130V) single chain: MGSSCHHHHHHSQDPNSSSMKEGKTIGLVISTLNNPFFVTLKNGAEEKAKELGYKIIVEDSQNDSSKELSNVEDLIQQKVDVLLINPVDSDAVVTAIKEANSKNIPVITIDRSANGGDVVSHIASDNVKVGEMAAEFIAKALKGKGNVVELEGIPGASAARDRGKGFDEAIAKYPDIKIVAKQAADFDRSKGLSVMENILQAQPKIDAVFAQNDEMALGAIKAIEAANRQGIIVVGFDGTEDALKAIKEGKMAATIAQQPALMGSLGVEMADKYLK")
"binds"
